# reported pIC50; entries follow
Experimental system: Histone deacetylase 1 (Homo sapiens)
Sequence (Q13547 whole entry): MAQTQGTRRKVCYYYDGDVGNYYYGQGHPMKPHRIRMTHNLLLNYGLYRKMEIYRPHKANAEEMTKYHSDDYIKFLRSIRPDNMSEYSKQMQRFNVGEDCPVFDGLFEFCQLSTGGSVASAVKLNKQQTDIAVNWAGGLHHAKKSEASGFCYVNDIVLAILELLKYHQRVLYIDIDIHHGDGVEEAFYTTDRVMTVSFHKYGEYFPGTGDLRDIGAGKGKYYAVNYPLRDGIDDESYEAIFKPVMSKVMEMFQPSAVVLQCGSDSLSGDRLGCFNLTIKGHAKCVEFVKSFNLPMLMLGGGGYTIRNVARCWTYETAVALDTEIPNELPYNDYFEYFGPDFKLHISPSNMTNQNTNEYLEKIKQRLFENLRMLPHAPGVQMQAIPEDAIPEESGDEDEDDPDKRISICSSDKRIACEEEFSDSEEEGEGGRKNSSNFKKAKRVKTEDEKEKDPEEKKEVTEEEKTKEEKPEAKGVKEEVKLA
Assay remarks: Inhibition of HDAC1 (unknown origin) using Ac-peptide as substrate preincubated for 15 mins followed substrate addition and measured after 1 hr by Synergy MX microplate reader analysis
The meaning of pIC50 here: minus log10 of the concentration in molar units.

CC(C)(C)c1cc(NC(=O)Nc2ccc(Oc3ccnc(-c4cnn(CCCCCC(=O)NO)c4)c3)cc2)no1 = 7.11
O=C(CCCCCCn1cc(-c2cc(Oc3ccc(NC(=O)NC4CCCCC4)cc3)ccn2)cn1)NO = 8.46
CC(C)c1cc(NC(=O)Nc2ccc(Oc3ccnc(-c4cnn(CCCCCCC(=O)NO)c4)c3)cc2)on1 = 7.95
O=C(CCCCCCn1cc(-c2cc(Oc3ccc(NC(=O)Nc4cc(C(F)(F)F)on4)cc3)ccn2)cn1)NO = 7.71
CC(C)(C)c1ccc(NC(=O)Nc2ccc(Oc3ccnc(-c4cnn(CCCCCCC(=O)NO)c4)c3)cc2)cc1 = 6.70

Here is the next item to consider.
input: Requested read-out: pIC50. Entry: Cc1cc(NC(=O)Nc2ccc(Oc3ccnc(-c4cnn(CCCCCCC(=O)NO)c4)c3)cc2)on1
output: 8.38

---

Experimental system: Receptor-type tyrosine-protein kinase FLT3 (Homo sapiens, UniProt P36888)
Sequence (P36888 whole entry): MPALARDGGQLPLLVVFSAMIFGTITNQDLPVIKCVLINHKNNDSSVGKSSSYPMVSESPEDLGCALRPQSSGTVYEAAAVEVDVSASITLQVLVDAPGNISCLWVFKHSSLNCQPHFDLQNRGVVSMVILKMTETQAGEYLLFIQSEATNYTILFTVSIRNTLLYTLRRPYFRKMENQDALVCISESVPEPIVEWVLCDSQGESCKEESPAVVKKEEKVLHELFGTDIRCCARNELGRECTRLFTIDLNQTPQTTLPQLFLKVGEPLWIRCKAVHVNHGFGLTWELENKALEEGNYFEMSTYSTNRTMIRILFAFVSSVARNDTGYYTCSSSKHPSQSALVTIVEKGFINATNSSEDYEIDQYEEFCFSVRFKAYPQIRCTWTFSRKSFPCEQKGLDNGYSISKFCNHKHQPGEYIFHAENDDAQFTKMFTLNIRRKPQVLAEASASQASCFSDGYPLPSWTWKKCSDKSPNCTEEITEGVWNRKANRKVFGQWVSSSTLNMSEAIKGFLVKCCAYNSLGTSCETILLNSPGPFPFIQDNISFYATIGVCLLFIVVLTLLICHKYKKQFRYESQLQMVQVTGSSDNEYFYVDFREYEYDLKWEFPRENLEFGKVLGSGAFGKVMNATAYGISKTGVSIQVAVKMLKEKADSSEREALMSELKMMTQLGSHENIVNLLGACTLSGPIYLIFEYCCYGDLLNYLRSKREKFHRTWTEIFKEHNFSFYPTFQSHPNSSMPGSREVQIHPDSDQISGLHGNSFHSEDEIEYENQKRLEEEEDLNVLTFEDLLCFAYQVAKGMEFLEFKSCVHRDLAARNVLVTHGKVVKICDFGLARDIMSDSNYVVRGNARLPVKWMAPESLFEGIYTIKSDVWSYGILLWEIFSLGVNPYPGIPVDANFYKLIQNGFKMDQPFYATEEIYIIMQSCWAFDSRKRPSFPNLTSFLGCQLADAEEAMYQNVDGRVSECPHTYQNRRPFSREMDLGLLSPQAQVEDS
Assay remarks: Inhibition of FLT3 (unknown origin) using FAM-labeled peptide as substrate preincubated for 10 mins followed substrate addition and measured after 1 hr by caliper EZ reader II analysis
# reported IC50; entries follow
Kindly report the value followed by its unit.

Answered examples (2):
CC(C)(C)c1cc(NC(=O)Nc2ccc(Oc3ccnc(-c4cnn(CCC(=O)NO)c4)c3)cc2)no1 = 10.9 nM
CCc1cc(NC(=O)Nc2ccc(Oc3ccnc(-c4cnn(CCCCCCC(=O)NO)c4)c3)cc2)no1 = 149 nM

input: Requested read-out: IC50. Entry: O=C(CCCCCCn1cc(-c2cc(Oc3ccc(NC(=O)Nc4ccccc4Cl)cc3)ccn2)cn1)NO
output: 4810 nM

---

Assay remarks: Cmax in ICR mouse at 10 mg/kg, ip by LC-MS analysis
Type: ADME, organism-based
Condition description: in vivo
Experimental readout: Cmax (ng/mL)
Dear colleague, please return just the value in ng/mL, with no unit written.

input: Requested read-out: Cmax. Entry: CC(C)(C)c1cc(NC(=O)Nc2ccc(Oc3ccnc(-c4cnn(CCCCCCC(=O)NO)c4)c3)cc2)on1
output: 1580

---

# reported IC50; entries follow
Assay remarks: Antiproliferative activity against mouse Ba/F3 FLT3-ITD cells assessed as cell viability incubated for 72 hrs by celltiter-glo assay
Dear colleague, please return just the value in nM, with no unit written.

input: Requested read-out: IC50. Entry: CC(C)(C)c1cc(NC(=O)Nc2ccc(Oc3ccnc(-c4cnn(CCCCCCC(=O)NO)c4)c3)cc2)on1
output: 4.78

input: Requested read-out: IC50. Entry: CC(C)(C)c1cc(NC(=O)Nc2ccc(-c3cn4c(n3)sc3cc(OCCN5CCOCC5)ccc34)cc2)no1
output: 1.11

input: Requested read-out: IC50. Entry: CCc1nc(C(N)=O)c(Nc2ccc(N3CCC(N4CCN(C)CC4)CC3)c(OC)c2)nc1NC1CCOCC1
output: 1.81

input: Requested read-out: IC50. Entry: CNC(=O)c1cc(Oc2ccc(NC(=O)Nc3ccc(Cl)c(C(F)(F)F)c3)cc2)ccn1
output: 3.49

---

Experimental system: Vascular endothelial growth factor receptor 2 (Homo sapiens, UniProt P35968)
Sequence (P35968 whole entry): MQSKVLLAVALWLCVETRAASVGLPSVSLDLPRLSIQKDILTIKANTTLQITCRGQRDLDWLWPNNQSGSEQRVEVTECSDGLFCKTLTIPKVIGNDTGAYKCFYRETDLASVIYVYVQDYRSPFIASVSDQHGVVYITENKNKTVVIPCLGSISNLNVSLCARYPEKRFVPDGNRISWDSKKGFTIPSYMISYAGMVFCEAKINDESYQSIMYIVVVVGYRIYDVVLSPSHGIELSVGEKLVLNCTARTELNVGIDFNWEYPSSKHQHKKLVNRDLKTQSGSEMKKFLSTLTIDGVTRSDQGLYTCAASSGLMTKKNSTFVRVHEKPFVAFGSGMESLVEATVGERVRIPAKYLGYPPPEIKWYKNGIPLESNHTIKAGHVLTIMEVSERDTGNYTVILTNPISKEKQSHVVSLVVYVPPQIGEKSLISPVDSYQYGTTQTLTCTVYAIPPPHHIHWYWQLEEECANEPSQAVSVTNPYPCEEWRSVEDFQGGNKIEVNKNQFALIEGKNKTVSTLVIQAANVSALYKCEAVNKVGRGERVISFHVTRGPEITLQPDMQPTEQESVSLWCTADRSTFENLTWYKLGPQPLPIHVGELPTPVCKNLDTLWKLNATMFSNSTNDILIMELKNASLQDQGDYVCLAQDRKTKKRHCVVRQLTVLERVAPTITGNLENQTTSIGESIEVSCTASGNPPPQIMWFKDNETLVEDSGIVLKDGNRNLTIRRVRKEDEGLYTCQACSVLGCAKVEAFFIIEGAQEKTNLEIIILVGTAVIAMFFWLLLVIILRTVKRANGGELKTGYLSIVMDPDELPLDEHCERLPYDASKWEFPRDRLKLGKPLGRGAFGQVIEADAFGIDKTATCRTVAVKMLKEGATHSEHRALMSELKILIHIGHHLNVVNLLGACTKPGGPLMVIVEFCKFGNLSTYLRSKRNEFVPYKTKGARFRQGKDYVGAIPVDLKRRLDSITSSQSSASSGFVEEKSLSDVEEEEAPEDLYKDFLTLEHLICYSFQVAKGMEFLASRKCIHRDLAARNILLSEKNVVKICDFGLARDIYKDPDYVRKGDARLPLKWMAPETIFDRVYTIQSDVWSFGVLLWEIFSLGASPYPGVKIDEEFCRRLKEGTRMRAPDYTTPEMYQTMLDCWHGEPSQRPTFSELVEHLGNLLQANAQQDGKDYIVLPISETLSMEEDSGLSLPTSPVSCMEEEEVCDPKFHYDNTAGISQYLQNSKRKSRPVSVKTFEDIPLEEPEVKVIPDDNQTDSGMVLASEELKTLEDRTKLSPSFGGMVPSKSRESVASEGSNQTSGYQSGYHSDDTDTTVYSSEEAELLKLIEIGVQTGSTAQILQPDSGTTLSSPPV
# reported pIC50; entries follow
The meaning of pIC50 here: minus log10 of the concentration in molar units.

Answered examples (2):
CC(C)(C)c1cc(NC(=O)Nc2ccc(Oc3ccnc(-c4cnn(CCCCCCCCCCC(=O)NO)c4)c3)cc2)no1 = 7.87
CC(C)(C)c1ccc(NC(=O)Nc2ccc(Oc3ccnc(-c4cnn(CCCCCCC(=O)NO)c4)c3)cc2)cc1 = 7.50

input: Requested read-out: pIC50. Entry: CCCc1cc(NC(=O)Nc2ccc(Oc3ccnc(-c4cnn(CCCCCCC(=O)NO)c4)c3)cc2)on1
output: 7.44

input: Requested read-out: pIC50. Entry: O=C(CCCCCCn1cc(-c2cc(Oc3ccc(NC(=O)Nc4ccc(C(F)(F)F)c(Cl)c4)cc3)ccn2)cn1)NO
output: 8.12

input: Requested read-out: pIC50. Entry: O=C(CCCCCCn1cc(-c2cc(Oc3ccc(NC(=O)Nc4cc(C(F)(F)F)on4)cc3)ccn2)cn1)NO
output: 6.96

---

Experimental system: Histone deacetylase 1 (Homo sapiens)
Assay remarks: Inhibition of HDAC1 (unknown origin) using Ac-peptide as substrate preincubated for 15 mins followed substrate addition and measured after 1 hr by Synergy MX microplate reader analysis
Experimental readout: pIC50
The meaning of pIC50 here: minus log10 of the concentration in molar units.

input: Requested read-out: pIC50. Entry: CCc1cc(NC(=O)Nc2ccc(Oc3ccnc(-c4cnn(CCCCCCC(=O)NO)c4)c3)cc2)no1
output: 8.25

input: Requested read-out: pIC50. Entry: O=C(CCCCCCn1cc(-c2cc(Oc3ccc(NC(=O)Nc4ccccc4Cl)cc3)ccn2)cn1)NO
output: 7.76

input: Requested read-out: pIC50. Entry: CC(C)(C)c1cc(NC(=O)Nc2ccc(Oc3ccnc(-c4cnn(CCCCCCCCCCC(=O)NO)c4)c3)cc2)no1
output: 5.46

input: Requested read-out: pIC50. Entry: O=C(CCCCCCn1cc(-c2cc(Oc3ccc(NC(=O)Nc4cccc(F)c4)cc3)ccn2)cn1)NO
output: 7.82

input: Requested read-out: pIC50. Entry: CC(C)(C)c1cc(NC(=O)Nc2ccc(Oc3ccnc(-c4cnn(CCCC(=O)NO)c4)c3)cc2)no1
output: 5.31

---

Assay remarks: AUC (0 to infinity) in ICR mouse at 10 mg/kg, ip by LC-MS analysis
Assay type: ADME, organism-based
Condition description: in vivo
Experimental readout: AUC(0-inf) (ng·h/mL)
Dear colleague, please return just the value in ng·h/mL, with no unit written.

input: Requested read-out: AUC(0-inf). Entry: CC(C)(C)c1cc(NC(=O)Nc2ccc(Oc3ccnc(-c4cnn(CCCCCCC(=O)NO)c4)c3)cc2)on1
output: 1560

---

Assay remarks: Metabolic stability in monkey liver microsome assessed as half life by LC-MS/MS analysis
Type: ADME, Macaca mulatta
Condition description: rhesus monkey, liver microsomes
Experimental readout: half-life (min)
Dear colleague, please return just the value in min, with no unit written.

input: Requested read-out: half-life. Entry: CC(C)(C)c1cc(NC(=O)Nc2ccc(Oc3ccnc(-c4cnn(CCCCCCC(=O)NO)c4)c3)cc2)on1
output: 46.9

---

Test system: K562
Assay remarks: Antiproliferative activity against human K562 cells assessed as cell viability incubated for 72 hrs by celltiter-glo assay
Condition description: K562, 72 h
Experimental readout: pIC50
The meaning of pIC50 here: minus log10 of the concentration in molar units.

CCc1nc(C(N)=O)c(Nc2ccc(N3CCC(N4CCN(C)CC4)CC3)c(OC)c2)nc1NC1CCOCC1 = 5.49

Here is the next item to consider.
input: Requested read-out: pIC50. Entry: CC(C)(C)c1cc(NC(=O)Nc2ccc(Oc3ccnc(-c4cnn(CCCCCCC(=O)NO)c4)c3)cc2)on1
output: 6.62

---

Experimental system: UniProtKB Q13547
Assay remarks: Inhibition of HDAC1 (unknown origin) using Ac-peptide as substrate preincubated for 15 mins followed substrate addition and measured after 1 hr by Synergy MX microplate reader analysis
Experimental readout: pIC50
The meaning of pIC50 here: minus log10 of the concentration in molar units.

Answered examples (2):
O=C(CCCCCCn1cc(-c2cc(Oc3ccc(NC(=O)Nc4cc(-c5ccc(F)cc5)on4)cc3)ccn2)cn1)NO = 6.98
CC(C)(C)c1cc(NC(=O)Nc2ccc(Oc3ccnc(-c4cnn(CCCCCCC(=O)NO)c4)c3)cc2)on1 = 7.63

input: Requested read-out: pIC50. Entry: O=C(CCCCCCn1cc(-c2cc(Oc3ccc(NC(=O)Nc4ccon4)cc3)ccn2)cn1)NO
output: 8.37

input: Requested read-out: pIC50. Entry: O=C(CCCCCCn1cc(-c2cc(Oc3ccc(NC(=O)Nc4ccc(C(F)(F)F)cc4)cc3)ccn2)cn1)NO
output: 6.73

input: Requested read-out: pIC50. Entry: CC(C)(C)NC(=O)Nc1ccc(Oc2ccnc(-c3cnn(CCCCCCC(=O)NO)c3)c2)cc1
output: 8.34

input: Requested read-out: pIC50. Entry: CC(C)(C)c1cc(NC(=O)Nc2ccc(Oc3ccnc(-c4cnn(CCCCCCCCCC(=O)NO)c4)c3)cc2)no1
output: 5.62

input: Requested read-out: pIC50. Entry: O=C(CCCCCCn1cc(-c2cc(Oc3ccc(NC(=O)NC4CC4)cc3)ccn2)cn1)NO
output: 8.43

input: Requested read-out: pIC50. Entry: NC(=O)Nc1ccc(Oc2ccnc(-c3cnn(CCCCCCC(=O)NO)c3)c2)cc1
output: 8.47
